# Tested on: Human peripheral blood mononuclear cells
# Experiment Description: Human Concanavalin-A Proliferation Assay (Con HU Assay)
# Type: cell-based
# Run Parameters: Homo sapiens, PBMC, concanavalin-A stimulated human PBMC, tritiated thymidine
# Procedure: Human peripheral blood mononuclear cells were cultured in RPMI 1640 medium supplemented with 10 μg/ml gentamicin, 50 μM 2-mercaptoethanol, 1X MEM non-essential amino acids (Sigma Chemical Co., St. Louis, Mo.), 100 U/ml sodium penicillin G, 100 μg/ml streptomycin sulfate, 2 mM L-glutamine, 1 mM sodium pyruvate (Life Technologies, Grand Island, N.Y.) and 10% fetal bovine serum (Hyclone, Logan, Utah) at 37° C. with 5% CO2. […]
pIC50: −log10 of the molar value.
Each entry below carries its recorded pIC50.
Assay Metric: pIC50

[[record]]
substance_smiles = "O=C(Nc1ccc(-n2nc(C(F)(F)F)cc2C(F)(F)F)cc1)c1ccc(F)cc1C(F)(F)F"
result_number = 6.44

[[record]]
substance_smiles = "CSc1cc(C(F)(F)F)nn1-c1ccc(NC(=O)c2ccncc2F)cc1"
result_number = 7.37

[[record]]
substance_smiles = "O=C(Nc1ccc(-n2nc(-c3cccnc3)cc2[N+](=O)[O-])cc1)c1ccncc1F"
result_number = 6.53

[[record]]
substance_smiles = "O=C(Nc1ccc(-n2nc(C(F)(F)F)cc2C(F)(F)F)cc1)c1c(F)cc(F)cc1F"
result_number = 7.40

[[record]]
substance_smiles = "Cc1oncc1C(=O)Nc1ccc(-n2nc(C(F)(F)F)cc2C(F)(F)F)cc1"
result_number = 6.38

[[record]]
substance_smiles = "COc1cc(C(F)(F)F)nn1-c1ccc(NC(=O)c2cccnc2F)cc1"
result_number = 6.73

[[record]]
substance_smiles = "N#Cc1cc(C(F)(F)F)nn1-c1ccc(NC(=O)c2ccccc2F)cc1"
result_number = 7.10

[[record]]
substance_smiles = "O=C(Nc1ccc(-n2nc(C(F)(F)F)cc2C(F)(F)F)cc1)c1cc(F)ccc1F"
result_number = 7.41

[[record]]
substance_smiles = "O=C(Nc1ccc(-n2nc(C(F)(F)F)cc2C(F)(F)F)cc1)c1ccc(Cl)nc1Cl"
result_number = 6.47

[[record]]
substance_smiles = "O=C(Nc1ccc(-n2nc(C(F)(F)F)cc2C(F)(F)F)cc1)c1c(F)cccc1Cl"
result_number = 7.15

[[record]]
substance_smiles = "Nc1cccc(C(=O)Nc2ccc(-n3nc(C(F)(F)F)cc3C(F)(F)F)cc2)c1"
result_number = 6.32

[[record]]
substance_smiles = "O=C(Nc1ccc(-n2nc(C(F)(F)F)cc2C(F)(F)F)cc1)c1c(F)cc(Cl)cc1Cl"
result_number = 6.76

[[record]]
substance_smiles = "CS(=O)(=O)c1ccc(C(=O)Nc2ccc(-n3nc(C(F)(F)F)cc3C(F)(F)F)cc2)c(Cl)c1"
result_number = 6.43

[[record]]
substance_smiles = "O=C(Nc1ccc(-n2nc(C(F)(F)F)cc2C(F)(F)F)cc1)c1cccc(Cl)c1F"
result_number = 7.17

[[record]]
substance_smiles = "O=C(Nc1ccc(-n2nc(C(F)(F)F)cc2C(F)(F)F)cc1)c1cccc(C(F)(F)F)c1"
result_number = 5.65

[[record]]
substance_smiles = "O=C(Nc1ccc(-n2nc(C(F)(F)F)cc2C(F)(F)F)cc1)c1ccc(O)cc1"
result_number = 6.41

[[record]]
substance_smiles = "O=C(CCCl)Nc1ccc(-n2nc(C(F)(F)F)cc2C(F)(F)F)cc1"
result_number = 6.04

